MEASUREMENT_NOTES: clinical
EXPERIMENTAL_SETUP: female, human, in vivo
MEASUREMENT_KIND: half-life

Q. Give me measured half-life, please, for this molecule: CONC(=O)Nc1ccc(-c2sc3c(c2CN(C)C)c(=O)n(-c2ccc(OC)nn2)c(=O)n3Cc2c(F)cccc2F)cc1
A. 14 to 16 h

====

MEASUREMENT_NOTES: clinical
EXPERIMENTAL_SETUP: human, in vivo, T1/2, highest found
MEASUREMENT_KIND: half-life

Q. Give me measured half-life, please, for this molecule: CONC(=O)Nc1ccc(-c2sc3c(c2CN(C)C)c(=O)n(-c2ccc(OC)nn2)c(=O)n3Cc2c(F)cccc2F)cc1
A. ~61 h

====

MEASUREMENT_NOTES: Example 9 6-week phase 1 study with or without E2/NETA: pharmacokinetics
Format: in vivo
EXPERIMENTAL_SETUP: female, human, plasma, 40 mg, plasma Compound 1 Ctrough, mean (SD), Week 3
MEASUREMENT_KIND: concentration at 3 week (ng/mL)
Express the result in ng/mL but write the number alone.

Q. Give me measured concentration at 3 week, please, for this compound: CONC(=O)Nc1ccc(-c2sc3c(c2CN(C)C)c(=O)n(-c2ccc(OC)nn2)c(=O)n3Cc2c(F)cccc2F)cc1
A. 2.57

====

MEASUREMENT_NOTES: Example 9 6-week phase 1 study with or without E2/NETA: pharmacokinetics
Type: in vivo
EXPERIMENTAL_SETUP: female, human, plasma, 40 mg, Compound 1 Cmax, geometric mean (CV%), Week 6
MEASUREMENT_KIND: Cmax (µg/mL)
Express the result in µg/mL but write the number alone.

Q. Give me measured Cmax, please, for this molecule: CONC(=O)Nc1ccc(-c2sc3c(c2CN(C)C)c(=O)n(-c2ccc(OC)nn2)c(=O)n3Cc2c(F)cccc2F)cc1
A. 0.0176

====

MEASUREMENT_NOTES: clinical
EXPERIMENTAL_SETUP: female, human, in vivo, 1 mg
MEASUREMENT_KIND: half-life

Q. Give me measured half-life, please, for this molecule: CONC(=O)Nc1ccc(-c2sc3c(c2CN(C)C)c(=O)n(-c2ccc(OC)nn2)c(=O)n3Cc2c(F)cccc2F)cc1
A. ~6 h

====

MEASUREMENT_NOTES: clinical
EXPERIMENTAL_SETUP: female, human, in vivo, 80 mg, median Tmax
MEASUREMENT_KIND: Tmax (h)
Express the result in h but write the number alone.

Q. Give me measured Tmax, please, for this compound: CONC(=O)Nc1ccc(-c2sc3c(c2CN(C)C)c(=O)n(-c2ccc(OC)nn2)c(=O)n3Cc2c(F)cccc2F)cc1 [Compound 1]
A. 4

====

MEASUREMENT_NOTES: Example 5A: plasma concentrations, population PK
Type: in vivo, human
EXPERIMENTAL_SETUP: human, plasma, oral; population PK; read-out: relative bioavailability higher in 40-mg compared with 10-mg
MEASUREMENT_KIND: increase in relative bioavailability, 40 mg vs 10 mg (%)
Express the result in % but write the number alone.

Q. Give me measured increase in relative bioavailability, 40 mg vs 10 mg, please, for this compound: CONC(=O)Nc1ccc(-c2sc3c(c2CN(C)C)c(=O)n(-c2ccc(OC)nn2)c(=O)n3Cc2c(F)cccc2F)cc1 [Compound 1]
A. 30.9

The reported numbers originate from patent US11957684B2.
